pEC50 reference
# TARGET DESC: beta-2 adrenergic receptors (Cavia porcellus)
# Construct: Trachea strips were isolated and prepared according to the method described by Emerson J and Machay D; from tissue; host or cells: guinea-pig isolated trachea strips
# Sequence (Q8K4Z4 whole entry): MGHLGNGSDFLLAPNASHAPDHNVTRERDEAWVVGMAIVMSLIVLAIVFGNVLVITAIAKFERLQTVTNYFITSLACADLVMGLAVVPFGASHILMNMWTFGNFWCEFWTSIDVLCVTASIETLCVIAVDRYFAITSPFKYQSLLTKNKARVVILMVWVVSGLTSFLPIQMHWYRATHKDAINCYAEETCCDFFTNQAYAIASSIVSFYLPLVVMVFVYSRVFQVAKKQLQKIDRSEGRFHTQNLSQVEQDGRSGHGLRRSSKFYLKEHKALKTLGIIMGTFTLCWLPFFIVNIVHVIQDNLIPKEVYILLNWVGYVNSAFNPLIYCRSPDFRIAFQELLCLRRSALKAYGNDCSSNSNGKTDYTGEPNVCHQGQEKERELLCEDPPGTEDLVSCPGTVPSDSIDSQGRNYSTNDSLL
# PROTOCOL DESCRIPTION: Isolated guinea-pig trachea: interactions with beta-2 adrenergic receptors (relaxation of carbachol contraction)
# PROTOCOL CONDITIONS: guinea-pig trachea, carbachol 3×10^-7 M; without propranolol; read-out: EC50 in absence of propranolol
pEC50: −log10 of the molar value. Structures can show the parent of a compound that is named as a salt.

COMPOUND	pEC50
CC(CCc1ccc(O)cc1)NC1CCc2cc(O)c(O)cc2C1 (centres unmarked) [CHF 1026, reference compound]	6.64
COc1ccc2c(c1OC)CCC(N[C@@H](C)[C@H](O)c1ccc(O)cc1)C2 (relative stereo) [CHF 1255, hydrochloride]	5.47

* * *

# Test system: isolated rat left atrium
# PROTOCOL DESCRIPTION: Isolated rat left atrium: inotropic activity (force)
# PROTOCOL CONDITIONS: Rattus norvegicus, read-out: EC50, left atrium (force)
pEC50: −log10 of the molar value. Structures can show the parent of a compound that is named as a salt.

COMPOUND	pEC50
O=C(NCCNCC(O)COc1ccc(O)cc1)N1CCOCC1 (stereo not shown) [xamoterol, xamoterol fumarate]	8.30

* * *

# PROTOCOL DESCRIPTION: Evaluation of acute toxicities, rat
# PROTOCOL CONDITIONS: in vivo, po, male/female, os, read-out: Acute toxicity mean LD50
Counter-ions that a name gives are not always drawn.

COMPOUND	UNITS LABEL	LD50
COc1ccc2c(c1OC)CCC(N[C@@H](C)[C@H](O)c1ccc(O)cc1)C2 (relative stereo) [CHF 1255, hydrochloride]	mg/kg	1270

* * *

Reported EC50 values for a set of molecules
# Tested on: isolated rat left atrium
# PROTOCOL DESCRIPTION: Isolated rat left atrium: inotropic activity (force)
# PROTOCOL CONDITIONS: Rattus norvegicus, Table 3; inotropic activity, rat left atrium; read-out: EC50, left atrium (force)
Structures can show the parent of a compound that is named as a salt.

MOLECULE	UNITS LABEL	EC50
NCCc1ccc(O)c(O)c1 [dopamine]	µM	1.19
COc1ccc2c(c1OC)CCC(N[C@@H](C)[C@H](O)c1ccc(O)cc1)C2 (relative stereo) [CHF 1255, hydrochloride]	µM	3.01
Nc1cc(-c2ccncc2)c[nH]c1=O [amrinone]	µM	26.6

* * *

# Tested on: isolated rat right atrium
# PROTOCOL DESCRIPTION: Isolated rat right atrium: chronotropic activity (frequency)
# PROTOCOL CONDITIONS: Rattus norvegicus, Table 3; chronotropic activity, rat right atrium; read-out: EC50, right atrium (frequency)
Where a name gives a salt, the structure may show the parent alone.

COMPOUND	TARGET DESC	EC50 [µM]
COc1ccc2c(c1OC)CCC(N[C@@H](C)[C@H](O)c1ccc(O)cc1)C2 (relative stereo) [CHF 1255, hydrochloride]	isolated rat right atrium	1.32
Nc1cc(-c2ccncc2)c[nH]c1=O [amrinone]	isolated rat right atrium	155
NCCc1ccc(O)c(O)c1 [dopamine]	isolated rat right atrium	1.89

* * *

# PROTOCOL DESCRIPTION: Evaluation of acute toxicities, mouse
# PROTOCOL CONDITIONS: in vivo, iv, male, i.v., read-out: Acute toxicity mean LD50
# From the text: Evaluation of acute toxicities
Counter-ions that a name gives are not always drawn.
MEASUREMENT TYPE: LD50 (mg/kg)

COMPOUND	ENDPOINT VALUE
COc1ccc2c(c1OC)CCC(N[C@@H](C)[C@H](O)c1ccc(O)cc1)C2 (relative stereo) [CHF 1255, hydrochloride]	65

* * *

# PROTOCOL DESCRIPTION: Evaluation of acute toxicities, rat
# PROTOCOL CONDITIONS: in vivo, iv, male/female, i.v., read-out: Acute toxicity mean LD50
Counter-ions that a name gives are not always drawn.

MOLECULE	LD50 / mg/kg
COc1ccc2c(c1OC)CCC(N[C@@H](C)[C@H](O)c1ccc(O)cc1)C2 (relative stereo) [CHF 1255, hydrochloride]	59
